Known Kd of a selection of compounds
Biological target: σ2 receptor (Homo sapiens, UniProt Q5BJF2)
Sequence (Q5BJF2 whole entry): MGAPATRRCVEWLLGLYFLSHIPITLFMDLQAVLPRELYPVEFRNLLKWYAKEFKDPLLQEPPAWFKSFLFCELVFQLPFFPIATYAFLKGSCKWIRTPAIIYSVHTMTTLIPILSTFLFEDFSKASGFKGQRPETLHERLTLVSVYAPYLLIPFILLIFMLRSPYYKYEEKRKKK
Assay: Flow cytometry saturation binding assay in MCF7 cells
Details: DTG (20 μM) as non-fluorescent σ2 reference ligand, σ1 masked by (+)-pentazocine

# compound, assayed_system, Kd
measured = [
    ("C[N+]1=C(/C=C/C=C/C=C2\\N(CCCCCC(=O)NCCCCCCn3cc(CCCCN4CCC5(CC4)OCc4ccccc45)c4ccccc43)c3ccccc3C2(C)C)C(C)(C)c2ccccc21.[I-] [Compound 19]", "σ2 receptor (Homo sapiens, UniProt Q5BJF2)", "13.6 nM"),
    ("C[N+]1=C(/C=C/C=C/C=C2/N(CCCCCC(=O)Nc3ccc4ccn(CCCCN5CCC6(CC5)OCc5ccccc56)c4c3)c3ccccc3C2(C)C)C(C)(C)c2ccccc21.[I-] [Compound 29]", "σ2 receptor (Homo sapiens, UniProt Q5BJF2)", "18.7 nM"),
]

###

Target: σ2 receptor (Rattus norvegicus, UniProt Q5U3Y7)
Sequence (Q5U3Y7 1-176): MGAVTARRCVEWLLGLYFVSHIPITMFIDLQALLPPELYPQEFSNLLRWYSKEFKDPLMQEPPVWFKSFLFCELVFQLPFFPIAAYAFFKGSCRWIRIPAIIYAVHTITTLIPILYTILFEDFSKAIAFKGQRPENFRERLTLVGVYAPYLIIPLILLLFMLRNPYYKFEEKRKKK
pKi: −log10 of the molar value.
Known pKi of a selection of compounds
recorded_metric: pKi

# compound, test_value
rows = [
    ("C[N+]1=C(/C=C/C=C/C=C/C=C2/N(CCCCCC(=O)Nc3ccc4ccn(CCCCN5CCC6(CC5)OCc5ccccc56)c4c3)c3ccccc3C2(C)C)C(C)(C)c2ccccc21.[I-] [Compound 30]", 7.40),
    ("C[N+]1=C(/C=C/C=C/C=C2\\N(CCCCCC(=O)NCCCCCCn3cc(CCCCN4CCC5(CC4)OCc4ccccc45)c4ccccc43)c3ccccc3C2(C)C)C(C)(C)c2ccccc21.[I-] [Compound 19]", 7.52),
    ("CN(C)c1ccc2c(c1)C(=O)N(CCCCCCn1cc(CCCCN3CCC4(CC3)OCc3ccccc34)c3ccccc31)C2=O [Compound 17]", 8.42),
    ("CN(C)c1ccc2c(c1)C(=O)N(CCCn1cc(CCCCN3CCC4(CC3)OCc3ccccc34)c3ccccc31)C2=O [Compound 16]", 8.00),
    ("C[N+]1=C(/C=C/C=C/C=C/C=C2\\N(CCCCCC(=O)NCCCCCCn3cc(CCCCN4CCC5(CC4)OCc4ccccc45)c4ccccc43)c3ccccc3C2(C)C)C(C)(C)c2ccccc21.[I-] [Compound 20]", 7.40),
    ("O=C(COc1ccc(-c2ccc3n2[B-](F)(F)[N+]2=C(c4cccs4)C=CC2=C3)cc1)NCCCCCCn1cc(CCCCN2CCC3(CC2)OCc2ccccc23)c2ccccc21 [Compound 18]", 6.66),
    ("C[N+]1=C(/C=C/C=C/C=C2/N(CCCCCC(=O)Nc3ccc4ccn(CCCCN5CCC6(CC5)OCc5ccccc56)c4c3)c3ccccc3C2(C)C)C(C)(C)c2ccccc21.[I-] [Compound 29]", 7.29),
    ("CN(C)c1ccc2c(c1)C(=O)N(c1ccc3ccn(CCCCN4CCC5(CC4)OCc4ccccc45)c3c1)C2=O [Compound 23]", 8.29),
]
